# measured.on: glycine (GLY) site of the NMDA receptor (Rattus norvegicus)
# Construct: measured as described in Jones S. M., et al., Pharmacol. Methods, 1989;21:161
# measurement.notes: glycine (GLY) site of the NMDA receptor binding affinity (Jones et al.)
readout.name: IC50 (nM)

CCOC(=O)N(C)Cc1c(C)c([N+](=O)[O-])cc2[nH]c(=O)c(=O)[nH]c12 [Compound 15] | 100
Cc1c([N+](=O)[O-])cc2[nH]c(=O)c(=O)[nH]c2c1CN(C)C(=O)C1CCCCC1 [Compound 3] | 300

A. Cc1c([N+](=O)[O-])cc2[nH]c(=O)c(=O)[nH]c2c1CN(C)C(=O)c1cccs1 [Compound 11]
B. CC(=O)N(C)Cc1c(C)c([N+](=O)[O-])cc2[nH]c(=O)c(=O)[nH]c12 [Compound 1]
Prompt line: Task for the reader: decide whether A or B has the larger IC50. Identify your pick by its label.
Response line: B
